Listed here: items and their measured MIC80.
System: Cryptococcus neoformans
Test: Antifungal activity against Cryptococcus neoformans 32609 after 72 hrs by serial dilution method
Format: functional
Details: Cryptococcus neoformans, 32609, 72 h
measurement.type: MIC80

1. Cc1cccc(C)c1-n1cnn(CCCN2CCN(CC(O)(Cn3cncn3)c3ccc(F)cc3F)CC2)c1=O (racemic)	> 64 µg/mL
2. O=c1n(-c2ccc(Cl)c(Cl)c2)cnn1CCCN1CCN(CC(O)(Cn2cncn2)c2ccc(F)cc2F)CC1 (racemic)	1 µg/mL
3. Cc1cc(C)cc(-n2cnn(CCCN3CCN(CC(O)(Cn4cncn4)c4ccc(F)cc4F)CC3)c2=O)c1 (racemic)	4 µg/mL
4. Cc1ccc(-n2cnn(CCCN3CCN(CC(O)(Cn4cncn4)c4ccc(F)cc4F)CC3)c2=O)cc1 (racemic)	8 µg/mL
5. OC(Cn1cncn1)(Cn1cncn1)c1ccc(F)cc1F	16 µg/mL
6. O=c1n(-c2ccccc2F)cnn1CCCN1CCN(CC(O)(Cn2cncn2)c2ccc(F)cc2F)CC1 (racemic)	> 64 µg/mL
